Biological target: Dihydrofolate reductase (Mycobacterium avium, UniProt O30463)
Sequence (O30463 whole entry): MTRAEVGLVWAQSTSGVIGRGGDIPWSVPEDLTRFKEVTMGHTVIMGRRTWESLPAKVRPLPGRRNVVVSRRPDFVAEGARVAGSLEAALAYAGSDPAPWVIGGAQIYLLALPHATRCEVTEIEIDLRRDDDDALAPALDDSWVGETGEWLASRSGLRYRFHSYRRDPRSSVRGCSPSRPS
pIC50: −log10 of the molar value.
MEASURED_METRIC: pIC50

[[record]]
input_smiles = "COc1cc(CN2CCc3c(oc4nc(N)nc(N)c34)C2)cc(OC)c1OC"
test_result = 4.92

[[record]]
input_smiles = "Nc1nc(N)c2c3c(oc2n1)CN(Cc1ccc(Cl)c(Cl)c1)CC3"
test_result = "< 4.70"

[[record]]
input_smiles = "Nc1nc(N)c2c3c(oc2n1)CN(Cc1ccccc1)CC3"
test_result = "< 4.82"

[[record]]
input_smiles = "Nc1nc(N)c2c3c(oc2n1)CN(Cc1c(Cl)cccc1Cl)CC3"
test_result = "< 4.09"

[[record]]
input_smiles = "Nc1nc(N)c2c3c(oc2n1)CN(Cc1ccc(C(=O)N[C@@H](CCC(=O)O)C(=O)O)cc1)CC3"
test_result = 6.01


q: Specify reported pIC50 for the molecule shown: `Nc1nc(N)c2c3c(oc2n1)CN(Cc1ccc(Cl)cc1Cl)CC3`
a: < 4.30

q: Give me measured pIC50, please, for this molecule: `COc1cc(CN2CCc3c(oc4nc(N)nc(N)c34)C2)cc(OC)c1`
a: < 4.70
